EC50 for assorted compounds
molecular target: SST2 (Homo sapiens, UniProt P30874); construct: host or cells: PathHunter CHO-K1 SST2 cells; experiment: PathHunter CHO-K1 SST2 internalization assay; assay type: cell-based; settings: PathHunter CHO-K1 SST2, 90 min; read-out: Internalization EC50
Sequence (P30874 whole entry): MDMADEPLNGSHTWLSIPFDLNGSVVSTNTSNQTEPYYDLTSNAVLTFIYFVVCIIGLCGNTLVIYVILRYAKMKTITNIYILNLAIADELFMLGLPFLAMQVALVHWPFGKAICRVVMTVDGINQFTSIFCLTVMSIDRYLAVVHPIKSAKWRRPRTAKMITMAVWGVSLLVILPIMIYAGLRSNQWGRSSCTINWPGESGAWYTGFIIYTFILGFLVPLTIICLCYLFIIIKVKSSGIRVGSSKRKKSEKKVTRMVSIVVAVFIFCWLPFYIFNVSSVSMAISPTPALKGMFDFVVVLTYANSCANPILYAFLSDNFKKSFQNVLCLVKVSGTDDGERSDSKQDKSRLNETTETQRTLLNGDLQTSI
observed property: EC50 (nM)

>>> value_measured("CC[C@H](C)[C@@H]([C@@H](CC(=O)N1CCC[C@H]1[C@H](OC)[C@@H](C)C(=O)N[C@H](C)[C@@H](O)c1ccccc1)OC)N(C)C(=O)[C@@H](NC(=O)[C@H](C(C)C)N(C)C(=O)OCc1ccc(NC(=O)[C@H](C)NC(=O)[C@@H](NC(=O)CCOCCOCCOCCOCCC(=O)NCCNc2ncc(-c3cc(C)cc(F)c3)c(N3CCC(N)CC3)c2-c2nc3ccc(Cl)cc3[nH]2)C(C)C)c(O[C@@H]2O[C@H](C(=O)O)[C@@H](O)[C@H](O)[C@H]2O)c1)C(C)C")
5.6
>>> value_measured("CC[C@H](C)[C@@H]([C@@H](CC(=O)N1CCC[C@H]1[C@H](OC)[C@@H](C)C(=O)N[C@H](C)[C@@H](O)c1ccccc1)OC)N(C)C(=O)[C@@H](NC(=O)[C@H](C(C)C)N(C)C(=O)OCc1ccc(NC(=O)[C@H](CCCNC(N)=O)NC(=O)[C@@H](NC(=O)CN2CCN(CC(=O)O)CCN(CC(=O)NCCOCCC(=O)NCCNc3ncc(-c4cc(C)cc(F)c4)c(N4CCC(N)CC4)c3-c3nc4ccc(Cl)cc4[nH]3)CC2)C(C)C)cc1)C(C)C")
8.3

----------
target: human somatostatin receptor subtype 2 (Homo sapiens, UniProt P30874); construct: expressed in transfected cells; assay: Functional cAMP assay for SSTR2 agonists (HTRF) in CHO-K1 cells; format: cell-based; details: CHO-K1 cells stably expressing human SST2, 20 min; read-out: hSST2 cAMP Avg EC50
Sequence (P30874 whole entry): as above
pEC50: −log10 of the molar value. Starred links: 1 amine or outer side, 2 acyl side, 3 side chain; linkers in the order of their positions; H or OH if unused. Non-standard residues stand in square brackets, D forms with d. Residues, ends and D or L forms follow the SMILES beside them. *: point of attachment. X1 = Cc1cc(F)cc(-c2cnc(NCCNC(=O)CCOCCC(=O)*)c(-c3nc4ccc(Cl)cc4[nH]3)c2N2CCC(N)CC2)c1; Dolaproine = CO[C@@H]([C@@H]1CCCN1)[C@@H](C)C(=O)O; Dil = CC[C@H](C)[C@H](NC)[C@@H](CC(=O)O)OC; PABC = O=C(OCc1ccc(N[*:1])cc1)[*:2]; X2 = C[C@@H](N*)[C@@H](O)c1ccccc1; Cya = N[C@@H](CS(=O)(=O)O)C(=O)O; Cit = NC(=O)NCCC[C@H](N)C(=O)O; NMeV = CN[C@H](C(=O)O)C(C)C
Some molecules, each annotated with its measured pEC50.
observed property: pEC50

>>> value_measured("CC[C@H](C)[C@@H]([C@@H](CC(=O)N1CCC[C@H]1[C@H](OC)[C@@H](C)C(=O)N[C@H](C)[C@@H](O)c1ccccc1)OC)N(C)C(=O)[C@@H](NC(=O)[C@H](C(C)C)N(C)C(=O)OCc1ccc(NC(=O)[C@H](CCCNC(N)=O)NC(=O)[C@@H](NC(=O)[C@H](CS(=O)(=O)O)NC(=O)[C@@H](CCC(=O)O)NC(=O)CCOCCC(=O)NCCNc2ncc(-c3cc(C)cc(F)c3)c(N3CCC(N)CC3)c2-c2nc3ccc(Cl)cc3[nH]2)C(C)C)cc1)C(C)C [Compound 106] (X1-[dE][Cya]V[Cit][PABC][NMeV]V[Dil][Dolaproine]-X2)")
9.60
>>> value_measured("CC[C@H](C)[C@@H]([C@@H](CC(=O)N1CCC[C@H]1[C@H](OC)[C@@H](C)C(=O)N[C@H](C)[C@@H](O)c1ccccc1)OC)N(C)C(=O)[C@@H](NC(=O)[C@H](C(C)C)N(C)C(=O)OCc1ccc(NC(=O)[C@H](CCCNC(N)=O)NC(=O)[C@@H](NC(=O)[C@H](CS(=O)(=O)O)NC(=O)CCOCCC(=O)NCCNc2ncc(-c3cc(C)cc(F)c3)c(N3CCC(N)CC3)c2-c2nc3ccc(Cl)cc3[nH]2)C(C)C)cc1)C(C)C [Compound 83] (X1-[Cya]V[Cit][PABC][NMeV]V[Dil][Dolaproine]-X2)")
9.96
